experiment: binders of probe aFGF10 on microarray, primary screen, stem cell growth factor project, biochemical, small-molecule microarray, fluorescence 635/667 (AID 1071); details: higher = more signal;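 note: score merges 667 nm spot intensity and signal to noise from triplicate slides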
Please enter 1 (yes) where composite z-score is greater than or equal to 0.2, and 0 (no) where it is lower.

compound=COCCOC(=O)N1C(=O)[C@@]2(c3cc(C#CC4(O)CCCCCC4)ccc31)[C@H](C(=O)NC[C@H](O)c1ccccc1)[C@H]1C(=O)O[C@H](c3ccccc3)[C@H](c3ccccc3)N1[C@@H]2c1ccccc1OCCO assigned_label="1 (yes)"
compound="COC(=O)C1=CC(CCCO)=CC(C2CC2)N(Cc2cc3c(cc2Br)OCO3)C=C1C(=O)OC (centres undefined)" assigned_label="0 (no)"
compound=COc1ccc([Si](C)(C)[C@@H]2[C@@H](CC(=O)N3CCC[C@H]3CO)O[C@]3(C(=O)N(Cc4ccc(N5CCC5=O)cc4)c4ccccc43)[C@H]2C)cc1 assigned_label="1 (yes)"
compound=CCCCC(=C=CC[C@H](O)c1cccc(OCCO)c1)CCO assigned_label="0 (no)"
compound=CC(C)C[C@@H]1NC(=O)[C@@H]2C[C@H](C(=O)NCCCCCNC(=O)CS)[C@H](c3cccc(OCCO)c3)N2C1=O assigned_label="1 (yes)"
compound="C=CCC(OC(C)=O)[C@@H]1[C@@H](N(Cc2ccc(-c3cccc(C(F)(F)F)c3)o2)C(=O)c2ccc(-c3ccccc3)cc2)c2cc(OCCCO)ccc2N1C(=O)Cc1ccc(OC)cc1 (some centres undefined)" assigned_label="0 (no)"
compound=COCCOC(=O)N1C(=O)[C@@]2(c3ccccc31)[C@H](C(=O)Nc1nc3ccccc3s1)[C@H]1C(=O)O[C@H](c3ccccc3)[C@H](c3ccccc3)N1[C@@H]2c1ccc(O)cc1 assigned_label="1 (yes)"
compound=C=C(COC)/C(=C/C[C@H](OC(C)=O)c1cccc(OCCO)c1)c1cc(C(=O)OC)ccc1OC assigned_label="1 (yes)"
compound=COc1c(C)cc(-c2cc3c(c(CCc4ccccc4)n2)[Si](C(C)C)(C(C)C)OC3)cc1C assigned_label="1 (yes)"
compound="COC(=O)C1=CC(c2ccc(CO)cc2)=CC(C2CC2)N(C)C=C1C(=O)OC (centres undefined)" assigned_label="0 (no)"
compound=C=C(C(=O)CC[C@@H](OC(C)=O)c1ccccc1OCCO)C(C)C assigned_label="1 (yes)"
compound=C=CCN1C(=O)[C@]2(O[C@H](CCn3cc([C@H](O)c4ccccc4)nn3)[C@@H]([Si](C)(C)c3ccc(OC)cc3)[C@@H]2C)c2cc(N3CCOC3=O)ccc21 assigned_label="0 (no)"
compound=COc1ccc([Si](C)(C)[C@H]2[C@H](CCO)O[C@@]3(C(=O)N(Cc4ccc(N5C(=O)c6cccc7cccc5c67)cc4)c4ccccc43)[C@@H]2C)cc1 assigned_label="0 (no)"
compound=C=C(COC)C(=O)CC[C@H](OC(=O)c1ccccc1-c1ccccc1C(=O)O)c1ccccc1OCCO assigned_label="1 (yes)"

====

test: CREB reporter modulators under forskolin, primary screen, cell-based, PC12, CRE-LacZ reporter, forskolin-stimulated (AID 1146); conditions: luminescence, 4.5 h, higher = more signal, called active from +8 up or from −8 down;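 note: PC12 cells with 6xCRE LacZ reporter stimulated by forskolin 10 µM; beta-galactosidase reporter signal reflecting CREB driven transcription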
Mark false (0) for z-score values under -0.8, and true (1) for everything at or above.

molecule="CCCCCN1CC=CC23O[C@@H]4/C=C\\CCC(C)OC(=O)C4[C@H]2C(=O)N(CCCO)[C@@H]3C1=O (stereo partly drawn)" assigned_label="true (1)"
molecule=Cc1ccc(S[C@]2(C(=O)NCC(C)C)CC(=O)N(C(C)C)[C@@H]2c2ccc(CO)cc2)cc1 assigned_label="false (0)"
molecule=CCCCCCC#C[Si](O[C@H](c1ccccc1)c1cn(Cc2ccccc2)nn1)(C(C)C)C(C)C assigned_label="false (0)"
molecule=C=C(CCCC)/C(=C/C[C@H](OC(=O)c1ccncc1)c1ccc(CO)o1)c1cnc2ccccc2c1 assigned_label="false (0)"
molecule=COc1ccc([Si](C)(C)[C@H]2[C@H](CC(=O)N(CCO)Cc3ccccc3)O[C@@]3(C(=O)N(Cc4ccc(N5CCC5=O)cc4)c4ccccc43)[C@@H]2C)cc1 assigned_label="true (1)"
molecule=O=C(NCC(F)(F)F)[C@@H]1c2ccccc2C(=O)N(C2Cc3ccccc3C2)[C@H]1c1ccc(CO)cc1 assigned_label="false (0)"
molecule=COCCOC(=O)N1C(=O)[C@@]2(c3cc(C#CC4(O)CCCCCC4)ccc31)[C@H](c1ccc(O)cc1)N1[C@H](c3ccccc3)[C@H](c3ccccc3)OC(=O)[C@H]1[C@@H]2C(N)=O assigned_label="true (1)"
molecule=C=CCN1C(=O)[C@@]2(O[C@@H](CCn3cc(CCO)nn3)[C@H]([Si](C)(C)c3ccc(OC)cc3)[C@H]2C)c2cc(NC(=O)c3ccc(OC)cc3)ccc21 assigned_label="false (0)"
molecule=COc1ccc(C#Cc2ccc3c(c2)[C@]2(C(=O)N3)[C@H](c3ccc(O)cc3)N3[C@H](c4ccccc4)[C@H](c4ccccc4)OC(=O)[C@H]3[C@@H]2C(N)=O)cc1 assigned_label="true (1)"
molecule=COC(=O)c1c(CC[C@@H](CO)NC(=O)Nc2ccc(OC)cc2)oc(C(=O)Cc2ccccc2)c1C(=O)OC assigned_label="true (1)"
molecule=C=CCNC(=O)[C@H]1[C@@H]2C(=O)O[C@@H](c3ccccc3)[C@@H](c3ccccc3)N2[C@@H](c2ccc(OCCO)cc2)[C@]12C(=O)Nc1ccc(C#CCCO)cc12 assigned_label="true (1)"
molecule=C=CCNC(=O)[C@@H]1[C@H]2C(=O)O[C@H](c3ccccc3)[C@H](c3ccccc3)N2[C@H](c2ccc(O)cc2)[C@@]12C(=O)N(C(=O)OCCOC)c1ccc(C#Cc3ccc(OC)cc3)cc12 assigned_label="true (1)"
molecule=COC(=O)C(CC#Cc1ccc2c(c1)[C@]1(C(=O)N2)[C@H](c2ccccc2OCCO)N2[C@H](c3ccccc3)[C@H](c3ccccc3)OC(=O)[C@H]2[C@@H]1C(=O)N1CCCCCCC1)C(=O)OC assigned_label="true (1)"

====

assay: basal 3T3-L1 adipocyte mitochondrial potential changes, profiling panel, cell-based, JC-1 fluorescence, 3T3-L1 adipocytes, 24 h, 100 nL compound (AID 1168); settings: JC-1 mitochondrial fluorescence, higher = more signal, called active from +8 up or from −8 down; note: test concentration not given here
MEASUREMENT TYPE: z-score

compound="CC(C)N1CC=CC23O[C@@H]4/C=C\\CCCOC(=O)C4[C@H]2C(=O)N(CCCO)[C@@H]3C1=O (stereo partly drawn)" measurement_type=z-score numeric_readout=0.32
compound=C=C(COC)C(=O)CC[C@H](OC(=O)c1cccnc1)c1cccc(OCCO)c1 measurement_type=z-score numeric_readout=0.984
compound=CC(C)NC(=O)[C@@H]1c2ccccc2C(=O)N(Cc2cc(F)cc(C(F)(F)F)c2)[C@H]1c1ccc(CO)cc1 measurement_type=z-score numeric_readout=-0.64
compound=C=C(C1=CCN(S(=O)(=O)c2ccc(C)cc2)C1)[C@@H](OC(C)=O)[C@@H]1CCCN1S(=O)(=O)c1ccccc1[N+](=O)[O-] measurement_type=z-score numeric_readout=0.496
compound=[N-]=[N+]=NCc1ccccc1C[C@@]1(C(=O)NCc2ccccc2)N=C(c2ccc(OCCCO)cc2)O[C@@H]1c1ccccc1 measurement_type=z-score numeric_readout=0.187
compound=CC(C)(C)OC(=O)CC[C@@]12N=C(c3ccc(OCCCO)cc3)O[C@@H]1c1ccccc1CN(Cc1ccccc1)C2=O measurement_type=z-score numeric_readout=0.547
compound="C#CCN1C(C(=O)OCC)OC[C@H]1c1ccccc1 (stereo partly drawn)" measurement_type=z-score numeric_readout=0.842
compound="CN1C=C(C(=O)OCCS(C)(=O)=O)C(C(=O)OCCS(C)(=O)=O)=CC(CCCO)=CC1c1cccs1 (stereo not drawn)" measurement_type=z-score numeric_readout=1.93

====

tested on: Sonic hedgehog protein (Shh); test: small-molecule binders of Shh protein, primary screen, biochemical, small-molecule microarray, 635/667 nm fluorescence (AID 1151); conditions: small-molecule microarray binding, 635 nm fluorescence; higher = more signal;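 note: Shh protein binding to compounds spotted on small-molecule microarray slides; score combines spot fluorescence intensity with signal-to-noise across triplicate slides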
Output 1 for composite z-score not less than 0.6; output -1 otherwise.

molecule=COc1ccc([Si](C)(C)[C@H]2[C@H](CC(=O)N(CCO)Cc3ccccc3)O[C@@]3(C(=O)N(Cc4ccc(N5CCOC5=O)cc4)c4ccccc43)[C@@H]2C)cc1 assigned_label=1
molecule=O=C(O)[C@H]1C[C@H]2C(=O)N[C@@H](Cc3ccccc3)C(=O)N2[C@H]1c1ccc(O)cc1 assigned_label=1
molecule=COCCCNC(=O)[C@@]1(C)c2ccccc2C(=O)N(Cc2cc(F)cc(C(F)(F)F)c2)[C@H]1c1ccc(CO)cc1 assigned_label=-1
molecule="CC(C)C(CO)N1C(=O)[C@@H]2C3C(=O)OCCC/C=C\\[C@H]3OC23C=CCN(C(C)C)C(=O)[C@@H]13 (some centres not stated)" assigned_label=-1
molecule="CC(CO)N1C(=O)[C@@H]2C3C(=O)OCCC/C=C\\[C@H]3OC23C=CCN(Cc2ccccc2)C(=O)[C@@H]13 (some centres not stated)" assigned_label=-1
molecule="CC(C)N1CC=CC23O[C@@H]4/C=C\\CCCOC(=O)C4[C@H]2C(=O)N(CCCO)[C@@H]3C1=O (some centres not stated)" assigned_label=-1
